# tested system: P2Y purinoceptor 14 (Homo sapiens, UniProt Q15391)
# assay: Antagonist activity at human P2Y14R expressed in HEK293 cells assessed as inhibition of UDPG-induced Ca2+ level by Fluo-4 dye based fluorescence assay
pIC50: −log10 of the molar value.
property name: pIC50

O=C(O)c1cc(NS(=O)(=O)CCc2ccccc2F)cc(-c2ccc(C3CCNCC3)cc2)c1 | 7.42
O=C(O)c1cc(NS(=O)(=O)Cc2ccc(C(F)(F)F)cc2)cc(-c2ccc(C3CCNCC3)cc2)c1 | 7.62
O=C(O)c1cc(NS(=O)(=O)CCc2ccc(F)cc2)cc(-c2ccc(C3CCNCC3)cc2)c1 | 7.37
O=C(O)c1cc(NS(=O)(=O)CCc2ccc(Br)cc2)cc(-c2ccc(C3CCNCC3)cc2)c1 | 7.71
O=C(O)c1cc(NS(=O)(=O)Cc2ccc([N+](=O)[O-])cc2)cc(-c2ccc(C3CCNCC3)cc2)c1 | 7.69
O=C(O)c1cc(NS(=O)(=O)CCc2ccc(Cl)cc2)cc(-c2ccc(C3CCNCC3)cc2)c1 | 7.54
O=C(O)c1cc(NS(=O)(=O)CCc2ccc(C(F)(F)F)cc2)cc(-c2ccc(C3CCNCC3)cc2)c1 | 8.25
O=C(O)c1cc(NS(=O)(=O)c2ccc(F)cc2)cc(-c2ccc(C3CCNCC3)cc2)c1 | 7.30
O=C(O)c1cc(NS(=O)(=O)c2ccc(C(F)(F)F)cc2)cc(-c2ccc(C3CCNCC3)cc2)c1 | 7.63

----------
# tested system: P2Y purinoceptor 14 (Homo sapiens)
# assay: Antagonist activity at human P2Y14R expressed in HEK293 cells assessed as inhibition of UDPG-induced Ca2+ level at 5 uM by Fluo-4 dye based fluorescence assay relative to control
# Assay type: functional, cell-based
# particulars: filed as antagonist
property name: inhibition (%)

O=C(O)c1cc(NS(=O)(=O)Cc2ccc(Br)cc2)cc(-c2ccc(C3CCNCC3)cc2)c1 | 83.1
O=C(O)c1cc(NS(=O)(=O)c2ccc(-c3ccc([N+](=O)[O-])cc3)cc2)cc(-c2ccc(C3CCNCC3)cc2)c1 | 65.1
O=C(O)c1cc(NS(=O)(=O)CCc2ccccc2)cc(-c2ccc(C3CCNCC3)cc2)c1 | 82.7
O=C(O)c1cc(NS(=O)(=O)CCc2ccc(C(F)(F)F)cc2)cc(-c2ccc(C3CCNCC3)cc2)c1 | 99.6
COc1ccc(S(=O)(=O)Nc2cc(C(=O)O)cc(-c3ccc(C4CCNCC4)cc3)c2)cc1 | 70.8
O=C(O)c1cc(NS(=O)(=O)c2ccc(-c3ccc(F)cc3)cc2)cc(-c2ccc(C3CCNCC3)cc2)c1 | 59.7
O=C(O)c1cc(NS(=O)(=O)c2ccc(Br)cc2)cc(-c2ccc(C3CCNCC3)cc2)c1 | 81
CC(C)(C)c1ccc(S(=O)(=O)Nc2cc(C(=O)O)cc(-c3ccc(C4CCNCC4)cc3)c2)cc1 | 49.6

----------
# assay: Tmax in SD […] at 10 mg/kg, po
# Format: ADME, organism-based
# particulars: in vivo
property name: Tmax (h)

O=C(O)c1cc(NS(=O)(=O)CCc2ccc(C(F)(F)F)cc2)cc(-c2ccc(C3CCNCC3)cc2)c1 | 1.55

----------
# assay: Tmax in SD […] at 5 mg/kg, iv
# Type: ADME, organism-based
# particulars: in vivo
property name: Tmax (min)

O=C(O)c1cc(NS(=O)(=O)CCc2ccc(C(F)(F)F)cc2)cc(-c2ccc(C3CCNCC3)cc2)c1 | 56

----------
# assay: Clearance in SD […] at 10 mg/kg, po
# Format: ADME, organism-based
# particulars: in vivo
property name: CL/F (mL/min/kg)

O=C(O)c1cc(NS(=O)(=O)CCc2ccc(C(F)(F)F)cc2)cc(-c2ccc(C3CCNCC3)cc2)c1 | 18.6

----------
# tested system: P2Y purinoceptor 14 (Homo sapiens) (UniProt Q15391)
# assay: Antagonist activity at human P2Y14R expressed in HEK293 cells assessed as inhibition of UDPG-induced Ca2+ level at 5 uM by Fluo-4 dye based fluorescence assay relative to control
# Assay type: functional, cell-based
# particulars: filed as antagonist
Entries and their inhibition
property name: inhibition

O=C(O)c1cc(NS(=O)(=O)c2cccc(F)c2)cc(-c2ccc(C3CCNCC3)cc2)c1 | 76.2%
O=C(O)c1cc(NS(=O)(=O)c2ccc(-c3ccccc3)cc2)cc(-c2ccc(C3CCNCC3)cc2)c1 | 60.5%
O=C(O)c1cc(NS(=O)(=O)c2ccc(-c3ccc(Cl)cc3)cc2)cc(-c2ccc(C3CCNCC3)cc2)c1 | 79.4%
O=C(O)c1cc(NS(=O)(=O)CCc2ccc(Br)cc2)cc(-c2ccc(C3CCNCC3)cc2)c1 | 96.7%
O=C(O)c1cc(NS(=O)(=O)Cc2ccccc2)cc(-c2ccc(C3CCNCC3)cc2)c1 | 81.6%
COc1cccc(S(=O)(=O)Nc2cc(C(=O)O)cc(-c3ccc(C4CCNCC4)cc3)c2)c1 | 47.8%
O=C(O)c1cc(NS(=O)(=O)c2ccc([N+](=O)[O-])cc2)cc(-c2ccc(C3CCNCC3)cc2)c1 | 82.6%
O=C(O)c1cc(NS(=O)(=O)c2ccc(F)cc2)cc(-c2ccc(C3CCNCC3)cc2)c1 | 85.2%
O=C(O)c1cc(NS(=O)(=O)CCc2ccc(Cl)cc2)cc(-c2ccc(C3CCNCC3)cc2)c1 | 92.6%
O=C(O)c1cc(NS(=O)(=O)Cc2ccc(F)cc2)cc(-c2ccc(C3CCNCC3)cc2)c1 | 82.8%
O=C(O)c1cc(NS(=O)(=O)Cc2ccc(C(F)(F)F)cc2)cc(-c2ccc(C3CCNCC3)cc2)c1 | 96.5%
O=C(O)c1cc(NS(=O)(=O)CCc2ccc(F)cc2)cc(-c2ccc(C3CCNCC3)cc2)c1 | 85.4%
O=C(O)c1cc(NS(=O)(=O)Cc2ccc([N+](=O)[O-])cc2)cc(-c2ccc(C3CCNCC3)cc2)c1 | 88.6%
CC(C)c1ccc(S(=O)(=O)Nc2cc(C(=O)O)cc(-c3ccc(C4CCNCC4)cc3)c2)cc1 | 69.5%
O=C(O)c1cc(NS(=O)(=O)c2ccc(-c3ccc(C(F)(F)F)cc3)cc2)cc(-c2ccc(C3CCNCC3)cc2)c1 | 76.5%
O=C(O)c1cc(NS(=O)(=O)c2ccccc2F)cc(-c2ccc(C3CCNCC3)cc2)c1 | 82.3%
O=C(O)c1cc(NS(=O)(=O)Cc2ccc(Cl)cc2)cc(-c2ccc(C3CCNCC3)cc2)c1 | 80.1%
O=C(O)c1cc(NS(=O)(=O)c2ccc(C(F)(F)F)cc2)cc(-c2ccc(C3CCNCC3)cc2)c1 | 90.8%

----------
# assay: Half life in SD […] at 5 mg/kg, iv
# Type: ADME, organism-based
# particulars: in vivo
property name: half-life (h)

O=C(O)c1cc(NS(=O)(=O)CCc2ccc(C(F)(F)F)cc2)cc(-c2ccc(C3CCNCC3)cc2)c1 | 2.6

----------
# assay: Aqueous solubility of the compound in pH 7.4 PBS buffer measured after 24 hrs by shake flask method
# Format: physicochemical
property name: solubility thermodynamic at 24 h (µg/mL)

O=C(O)c1cc(NS(=O)(=O)CCc2ccc(C(F)(F)F)cc2)cc(-c2ccc(C3CCNCC3)cc2)c1 | 108

----------
Entries and their inhibition
# tested system: P2Y purinoceptor 14 (Homo sapiens)
# Sequence (whole entry): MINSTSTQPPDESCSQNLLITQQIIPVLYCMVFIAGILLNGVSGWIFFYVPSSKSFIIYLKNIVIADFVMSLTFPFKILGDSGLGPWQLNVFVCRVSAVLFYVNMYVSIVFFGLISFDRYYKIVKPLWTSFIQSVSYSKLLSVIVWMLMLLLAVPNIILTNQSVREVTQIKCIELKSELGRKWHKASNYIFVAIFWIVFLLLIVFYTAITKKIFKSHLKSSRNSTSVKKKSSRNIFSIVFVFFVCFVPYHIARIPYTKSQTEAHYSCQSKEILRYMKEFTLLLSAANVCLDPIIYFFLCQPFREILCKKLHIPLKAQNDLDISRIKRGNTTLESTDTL
# assay: Antagonist activity at human P2Y14R expressed in HEK293 cells assessed as inhibition of UDPG-induced Ca2+ level at 5 uM by Fluo-4 dye based fluorescence assay relative to control
# Type: functional, cell-based
# particulars: filed as antagonist
property name: inhibition (%)

O=C(O)c1cc(NS(=O)(=O)c2ccc(Cl)cc2)cc(-c2ccc(C3CCNCC3)cc2)c1 | 80.9
O=C(O)c1cc(NS(=O)(=O)CCc2ccccc2F)cc(-c2ccc(C3CCNCC3)cc2)c1 | 86.4
O=C(O)c1cc(NS(=O)(=O)c2ccc(-c3ccccc3F)cc2)cc(-c2ccc(C3CCNCC3)cc2)c1 | 43.6
O=C(O)c1cc(NS(=O)(=O)Cc2ccccc2F)cc(-c2ccc(C3CCNCC3)cc2)c1 | 80.6
O=C(O)c1cc(NS(=O)(=O)c2ccccc2)cc(-c2ccc(C3CCNCC3)cc2)c1 | 81.5
O=C(O)c1cc(NS(=O)(=O)c2ccc(-c3ccc(Br)cc3)cc2)cc(-c2ccc(C3CCNCC3)cc2)c1 | 68.9
Cc1ccc(S(=O)(=O)Nc2cc(C(=O)O)cc(-c3ccc(C4CCNCC4)cc3)c2)cc1 | 50.6
